Measured On: T1, rHuman IGF-1 sR, (IGF-1 sR), CF (R&D Systems Cat#391-GR) (human, UniProt P08069 31-932)
T1 construct: Bought soluble receptor; also called insulin-like growth factor-1 soluble receptor
Assay Notes: ECL multispot (MSD) assay; antigen spotted on plate, Fab in solution;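 further: purified Fab incubated 1 hour at 20 °C in 1% BSA TBST on antigen-coated wells, detected with TAG antibody, ECL read on Sector Imager 2400, compared to each well's blank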
Readout Label: ECL signal (ECL signal)
Give the number; ECL signal is assumed, so skip it.

(Q) Give the measured ECL signal of Fab VH1-46_IGHD6-6*01_IGHJ1*01 S102A/S103P/S104F (APF) & L6_IGKJ1*01 S30L (Fab, V domains shown, Tested as Fab made in E. coli; The heavy chain vector (Plasmid A) adds CH1 with His and Flag tags, the kappa vector (Plasmid C) adds CL kappa; also called APF / S30L) VH: QVQLVQSGAEVKKPGASVKVSCKASGYTFTSYYMHWVRQAPGQGLEWMGIINPSGGSTSYAQKFQGRVTMTRDTSTSTVYMELSSLRSEDTAVYYCAREEYAPFSAEYFQHWGQGTLVTVSS VL: EIVLTQSPATLSLSPGERATLSCRASQSVLSYLAWYQQKPGQAPRLLIYDASNRATGIPARFSGSGSGTDFTLTISSLEPEDFAVYYCQQRSNWPPWTFGQGTKVEIKR .
(A) 193
